Data provenance is the supplement of paper PMC10724198.

- Test system: Saccharomyces cerevisiae;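 also: PSI is a weighted mean of sequencing reads over stability bins, variants kept only with over 10 reads, mCherry proximal and sfGFP distal, peptide attached via GGGS linker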
- EXPERIMENT_DESCRIPTION: protein stability index of tFT-peptide fusion (C-terminal peptide) (PSI (0-1 scale)); higher = more stable (slower turnover)
- SETUP_CONDITIONS: genetic background: wild type; temperature: 30 C
Respond with satisfied for protein stability index values of 0.7 and above, not satisfied for values below.

- HLLNPVRSPLPA: not satisfied
- RVCDSAPKRNRH: not satisfied
- EKERRATCPGRK: not satisfied
- CVPPSFRPSLFD: satisfied
- PPPPTPPPHSPP: not satisfied
- SVVWIRFVGVRV: not satisfied
- LLASFWKFIVNI: not satisfied
- MSWLGLGLWSVF: satisfied
- TETAHNFPYCCD: not satisfied
- AVARYPPHCSHN: satisfied
- SRHPSFPLPMPL: satisfied
- FLGLDLVFRFFV: not satisfied
- KKHTLNENKMKE: not satisfied
- GSVGFICCVVVV: not satisfied
- SARQCWFSLSDD: not satisfied
- GSFVLPLIYIHN: not satisfied
- LPLVFYCFLLHS: not satisfied
- FFSSALILSLRL: not satisfied
- RLGHAIVLLLPC: not satisfied
- GLVWSKCFFIVG: not satisfied
- PPRLAPPDPSLL: not satisfied
- LSPPPPRPTLQF: satisfied
- SKDFLLILDPAK: not satisfied
- RHHRACLNTRLG: not satisfied
- FCLIHCIVPFPV: not satisfied
- VFVMVLCALFYF: not satisfied
- FLLCGVFFFFFV: not satisfied
- WGRCVGLAGAAG: not satisfied
- TGIGPWVSPSIC: not satisfied
- CRAAMYSFFLNF: not satisfied
- KNTKRQIKKNKK: not satisfied
- GVSRRWFSLRCI: not satisfied
- RARYGPSYTLPL: not satisfied
- AWVEVYVISIGV: not satisfied
- PTSPPPPPASPS: satisfied
- SFCGVLCIRACF: not satisfied
- RACVCPCHPHRY: satisfied
- TPPPLRTASLLP: not satisfied
- FLRCALRLRFGF: not satisfied
- KKGKKRNKTAKQ: not satisfied
- SPIGIFCFILCR: not satisfied
- ESKATIRTRARN: satisfied
- SGTQSGAFSRGQ: not satisfied
- RSRPPPSPTTPL: satisfied
- SVSRGSWVWGRL: satisfied
- SGCVARTRGLSG: not satisfied
- DFSLRCIAIPRV: not satisfied
- IERLRLRTRIIC: not satisfied
- SPRLPLSRPLVV: not satisfied
- SPNSCSVDYFAT: not satisfied
- EYGLLLTLLAYY: not satisfied
- VGASFVAVGVEG: not satisfied
- DLSDGHFSTASP: not satisfied
- QPSSFDMLGLLL: satisfied
- WYGSYPLTLESY: not satisfied
- VCNYRKLIWKHH: not satisfied
- SSLSPTPPPSFP: satisfied
- EVESYVVSGDRW: not satisfied
- MSVLAFVCCLSG: not satisfied
- IRSLPYVGVFIE: not satisfied
- HCSYSSSRPSPR: not satisfied
